Data origin, for the record: PubChem BioAssay (EPA / NIEHS)

# target: human Adenosine A1 Receptor (AdoRA1), ADORA1 (gene 134) (UniProt P30542)
# Sequence (P30542 whole entry, looked up): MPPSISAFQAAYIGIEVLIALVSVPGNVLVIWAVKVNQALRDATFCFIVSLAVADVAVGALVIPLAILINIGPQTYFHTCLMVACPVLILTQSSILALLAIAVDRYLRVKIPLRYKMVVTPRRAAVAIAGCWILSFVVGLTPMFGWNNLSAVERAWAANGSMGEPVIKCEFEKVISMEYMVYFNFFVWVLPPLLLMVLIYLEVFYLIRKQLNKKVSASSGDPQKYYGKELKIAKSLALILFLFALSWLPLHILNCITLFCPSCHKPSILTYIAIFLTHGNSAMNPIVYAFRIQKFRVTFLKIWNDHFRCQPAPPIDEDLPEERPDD
# testDetails: NVS_GPCR_hAdoRA1: NovaScreen (NVS) G Protein-Coupled Receptor Assay for human Adenosine A1 Receptor (AdoRA1) (AID 2283254)
Records with an inconclusive call do not appear. Active and inactive are the calls of the source. Rule for the calls: active = hit-call score of the fitted dose curve at least 0.9, where 1 is the maximum; inconclusive = response in the unintended direction; inactive = score below 0.9.
Choose one outcome from this list and give only that: 1.0 for active, 0.0 for inactive

[
  {
    "smilesRepr": "Cc1oc2c(NC(=O)c3c(Cl)cccc3Cl)cccc2c1C(C)(C)O",
    "discreteLabel": 0.0
  }
]

query: // outcome(item) with item = COc1cc(C(=O)NC2CCN(C)CC2)ccc1Nc1ncc2c(n1)N(C1CCCC1)CC(F)(F)C(=O)N2C
result: 1.0

query: Just curious, what result did O=C1c2ccccc2C(=O)N1CCc1noc(-c2ccc(CN3CCCCCC3)s2)n1 get here?
result: 0.0

query: Fill in: this test's call for Cc1cc(F)ccc1-c1cc(N2CC[C@@H](O)[C@H]2CO)ncc1N(C)C(=O)C(C)(C)c1cc(C(F)(F)F)cc(C(F)(F)F)c1 is ___
result: 1.0

query: Assay outcome for CCCOC(=O)c1cc(O)c(O)c(O)c1 : what was it?
result: 1.0

query: Called result for CCN(CC)C(=O)c1cc(S(=O)(=O)Cc2ccccc2)c(N2CCC(c3ccccc3)CC2)cc1N(CC)CCN(C)C
result: 1.0

query: Assay result, entry CN(C[C@@H](CC[N+]12CCC(C3CCCCC3)(CC1)CC2)c1ccc(Cl)c(Cl)c1)C(=O)c1cc(C(F)(F)F)cc(C(F)(F)F)c1 — outcome?
result: 1.0

query: Field: outcome | Entry: O=C(O)Cc1cc(I)c(Oc2ccc(O)c(I)c2)c(I)c1
result: 0.0

query: Look up the recorded call for Cc1occc1C(=O)Nc1ccc(C(=O)N2CCC(F)(F)/C(=C\C(=O)N3CCC(N4CCCCC4)CC3)c3ccccc32)cc1 in this test.
result: 1.0

query: Which outcome was assigned to O=c1c(-c2ccc(O)cc2)coc2cc(O)cc(O)c12 in this test?
result: 0.0

query: Test call, this compound: CC/C(=C(/CC)c1ccc(O)cc1)c1ccc(O)cc1
result: 1.0
